tested on: HCT 116 cells; assay: Cell growth assay (CellTiter-Glo 2.0), HCT 116 MSI-H cell line; conditions: Homo sapiens, HCT-116, 120 h, read-out: Cell Growth Inhibition GI50 HCT-116
Value Kind: GI50 (nM)
Field format: number, assumed nM, no unit text.

Inquiry: Tell me reported GI50 for CCN(C)c1ncc(C(=O)N[C@H](/C=C/S(C)(=O)=O)C2CC2)c(Oc2ccccc2)n1 , tested with HCT 116 cells.
Reply text: 27.4

Inquiry: Param readout= GI50; system= HCT 116 cells; entry= CS(=O)(=O)/C=C/[C@@H](NC(=O)c1ccc(C(F)(F)C2CC2)nc1Oc1ccccc1)C1CC1 ; returns value.
Reply text: 11

Inquiry: For HCT 116 cells, provide GI50 of CS(=O)(=O)/C=C\C1CN(C(=O)c2cnc(C3CC3)nc2Oc2ccccc2)C1 (single isomer, unassigned) please.
Reply text: 1100

Inquiry: Find GI50 (HCT 116 cells) for the entry C[C@@H](/C=C/S(C)(=O)=O)NC(=O)c1cnc(C(C)(C)C)nc1OC1CCCC1
Reply text: 165

Inquiry: Notebook entry, HCT 116 cells assay: GI50 of CS(=O)(=O)/C=C/CNC(=O)c1cnc(C2CCCC2)nc1Oc1cccc(F)c1 = ?
Reply text: 4200

Inquiry: Field: GI50 (HCT 116 cells). Entry: C[C@@H](/C=C/S(C)(=O)=O)NC(=O)c1cnc([C@H]2C[C@H](C)C2)nc1Oc1ccccc1 (single isomer, unassigned)
Reply text: 292

Inquiry: API: value(readout=GI50, system=HCT 116 cells) for record CC(C)(C)c1ncc(C(=O)N[C@H](/C=C\S(C)(=O)=O)Cc2ccccc2)c(Oc2ccccc2)n1 (single isomer, unassigned)
Reply text: 1300

----------
Task for the reader: assign each of the following molecules its reported pIC50.
molecular target: WRN C727 (Homo sapiens, UniProt Q14191); construct: endogenous in cells; host or cells: OCI-AML2; assay: Target engagement, in vitro (lysate), OCI-AML2; format: binding; settings: read-out: OCI-AML2 WRN C727 TE50 in vitro (lysate)
Sequence (Q14191 whole entry): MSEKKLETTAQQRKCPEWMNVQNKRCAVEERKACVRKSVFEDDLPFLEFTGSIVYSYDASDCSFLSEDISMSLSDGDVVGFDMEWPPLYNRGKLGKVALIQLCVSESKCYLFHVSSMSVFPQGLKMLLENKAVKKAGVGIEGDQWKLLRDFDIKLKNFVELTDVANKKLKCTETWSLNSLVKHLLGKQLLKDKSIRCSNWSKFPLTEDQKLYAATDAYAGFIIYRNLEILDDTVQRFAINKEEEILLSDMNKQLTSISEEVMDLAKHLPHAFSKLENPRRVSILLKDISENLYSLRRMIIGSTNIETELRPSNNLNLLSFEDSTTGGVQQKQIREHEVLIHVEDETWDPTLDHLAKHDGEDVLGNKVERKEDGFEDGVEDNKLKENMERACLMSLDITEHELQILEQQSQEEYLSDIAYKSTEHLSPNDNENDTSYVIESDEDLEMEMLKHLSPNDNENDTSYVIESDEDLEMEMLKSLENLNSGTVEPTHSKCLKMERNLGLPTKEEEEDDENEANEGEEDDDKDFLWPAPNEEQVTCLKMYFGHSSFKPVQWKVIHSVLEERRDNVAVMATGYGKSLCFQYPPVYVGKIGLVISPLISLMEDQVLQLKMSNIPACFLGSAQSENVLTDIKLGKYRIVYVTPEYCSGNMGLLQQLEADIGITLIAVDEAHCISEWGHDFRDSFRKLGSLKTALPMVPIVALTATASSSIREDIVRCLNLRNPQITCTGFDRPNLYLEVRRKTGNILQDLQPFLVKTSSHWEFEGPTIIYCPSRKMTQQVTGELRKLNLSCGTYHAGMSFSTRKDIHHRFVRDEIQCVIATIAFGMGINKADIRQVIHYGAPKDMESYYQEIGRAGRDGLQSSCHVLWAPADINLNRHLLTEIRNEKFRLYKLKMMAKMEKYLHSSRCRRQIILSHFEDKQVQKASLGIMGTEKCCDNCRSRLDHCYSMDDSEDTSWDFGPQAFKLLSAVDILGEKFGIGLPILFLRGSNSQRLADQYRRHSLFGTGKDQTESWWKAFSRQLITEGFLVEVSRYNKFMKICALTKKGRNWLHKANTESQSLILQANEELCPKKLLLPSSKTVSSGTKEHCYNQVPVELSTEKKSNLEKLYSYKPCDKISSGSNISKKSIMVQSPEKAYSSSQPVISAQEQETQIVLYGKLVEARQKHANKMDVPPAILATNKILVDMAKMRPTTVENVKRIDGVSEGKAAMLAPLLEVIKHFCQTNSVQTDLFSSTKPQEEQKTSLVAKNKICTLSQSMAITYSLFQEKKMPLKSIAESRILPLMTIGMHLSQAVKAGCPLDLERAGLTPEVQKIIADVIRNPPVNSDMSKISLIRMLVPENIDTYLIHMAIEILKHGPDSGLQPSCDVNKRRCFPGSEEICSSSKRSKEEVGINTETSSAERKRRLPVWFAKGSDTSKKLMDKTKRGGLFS
Reminder that pIC50 means the negative base-10 logarithm of the concentration expressed in mol/L.

Inquiry: Query: pIC50; subject: CS(=O)(=O)/C=C/CNC(=O)c1cnc(C2CCC2)nc1Oc1ccccc1
Reply text: 4.73

Inquiry: Given the entry CS(=O)(=O)/C=C/[C@@H](NC(=O)c1cnc(CC2CC2)nc1Oc1ccccc1)C1CC1 , report its measured pIC50.
Reply text: 6.35

Inquiry: Given the entry CS(=O)(=O)/C=C/[C@H](CC1CC1)NC(=O)c1cnc(C2CC2)nc1Oc1ccccc1 , report its measured pIC50.
Reply text: 5.17

----------
target: WRN C727 (Homo sapiens, UniProt Q14191); construct: endogenous in cells; host or cells: OCI-AML2; assay: Target engagement, in vitro (lysate), OCI-AML2; assay type: binding; details: read-out: OCI-AML2 WRN C727 TE50 in vitro (lysate)
Assign pIC50 to each entry below.
Expect pIC50 as a plain number equal to -log10 of the molar concentration.

Inquiry: Query: pIC50; subject: C[C@@H](/C=C/S(C)(=O)=O)NC(=O)c1cnc(C2(C)CC2)nc1Oc1ccccc1
Reply text: 6.10

Inquiry: Report pIC50 for CS(=O)(=O)/C=C/CNC(=O)c1cnc(C2CCCC2)nc1Oc1ccc(F)cc1 please.
Reply text: 5.13

Inquiry: Which pIC50 is listed for CC(F)(F)c1cc(Oc2ccccc2)c(C(=O)N[C@H](/C=C/S(C)(=O)=O)C2CC2)cn1 ?
Reply text: 6.38

Inquiry: Returns the measured pIC50 for the input compound. Input: C[C@@H]1CC[C@H](c2ncc(C(=O)N[C@@H](C)/C=C/S(C)(=O)=O)c(Oc3ccccc3)n2)C1 (racemic)
Reply text: 5.02

Inquiry: Name the reported pIC50 value associated with the compound C[C@@H](/C=C/S(C)(=O)=O)NC(=O)c1cnc(C2CCCC2)nc1Oc1ccc(C#N)cc1
Reply text: 5.16

Inquiry: I have this compound here, COc1ncc(C(=O)N[C@H](/C=C/S(C)(=O)=O)C2CC2)c(Oc2ccccc2)n1 , and I need its recorded pIC50.
Reply text: 6.31

Inquiry: Entry under review: C[C@@H](/C=C/S(C)(=O)=O)NC(=O)c1cnc(C2CCCC2)nc1Oc1ccccc1F . Reported pIC50?
Reply text: 4.52

----------
Would you mind telling me the reported IC50 of each entry?
target: hWRN(519-1227)_C-H3CV-GFP-10His (Homo sapiens, UniProt Q14191); assay: Helicase Assay for WRN Inhibition (ATP-dependent, fluorescence based); settings: WRN Helicase IC50, 30 min preincubation with ATP, 30 min reaction
Sequence (Q14191 519-1227): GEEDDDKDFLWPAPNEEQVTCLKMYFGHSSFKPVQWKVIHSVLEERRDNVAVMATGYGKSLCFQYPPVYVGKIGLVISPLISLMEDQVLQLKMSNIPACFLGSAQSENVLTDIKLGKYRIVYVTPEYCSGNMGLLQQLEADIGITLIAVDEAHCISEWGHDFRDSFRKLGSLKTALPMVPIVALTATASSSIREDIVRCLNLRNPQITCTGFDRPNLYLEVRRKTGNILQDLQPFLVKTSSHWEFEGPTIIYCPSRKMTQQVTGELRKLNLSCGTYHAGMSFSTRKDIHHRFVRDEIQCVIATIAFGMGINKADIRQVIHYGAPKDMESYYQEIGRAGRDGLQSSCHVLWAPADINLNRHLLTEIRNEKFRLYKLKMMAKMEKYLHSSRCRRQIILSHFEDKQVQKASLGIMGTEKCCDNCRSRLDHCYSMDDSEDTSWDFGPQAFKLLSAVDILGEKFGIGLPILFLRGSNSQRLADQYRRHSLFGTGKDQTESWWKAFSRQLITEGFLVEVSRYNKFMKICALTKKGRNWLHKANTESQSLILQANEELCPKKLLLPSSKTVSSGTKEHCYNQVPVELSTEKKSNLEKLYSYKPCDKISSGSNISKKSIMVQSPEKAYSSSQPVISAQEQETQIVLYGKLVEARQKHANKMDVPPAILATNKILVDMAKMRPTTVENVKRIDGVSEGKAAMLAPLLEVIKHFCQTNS
Only the number, expressed in µM, is required.

Inquiry: Fill in: IC50 of CS(=O)(=O)/C=C/[C@@H](NC(=O)c1cnc(C(F)(F)C2CC2)nc1Oc1ccccc1)C1CC1 is ___
Reply text: 0.0483

Inquiry: Value lookup for IC50; key = C[C@@H](/C=C/S(C)(=O)=O)NC(=O)c1cnc(CC2CCCC2)nc1Oc1ccccc1
Reply text: 2.6

Inquiry: Give its IC50 value. Item: CS(=O)(=O)/C=C/[C@@H](NC(=O)c1cnc(C(F)(F)C2CC2)nc1Oc1ccccc1)C1CCC1
Reply text: 0.0544

Inquiry: Item under review: C[C@@H](/C=C/S(C)(=O)=O)NC(=O)c1cnc(C2(F)CC2)nc1Oc1ccccc1 . Reported IC50?
Reply text: 2

Inquiry: Can you look up the measured IC50 of CC(C)(C)c1ncc(C(=O)N[C@H](/C=C/S(C)(=O)=O)C2CC2)c(Oc2ccccc2)n1 for me?
Reply text: 0.0577

Inquiry: Look up IC50: CS(=O)(=O)/C=C/[C@@H](NC(=O)c1cc2c(nc1Oc1ccccc1)C(F)(F)CC2)C1CC1
Reply text: 17

Inquiry: I'd like to know its IC50. The compound in question is CSC[C@@H](/C=C/S(C)(=O)=O)NC(=O)c1cnc(C2CC2)nc1Oc1ccccc1
Reply text: 0.88

Inquiry: Quick check: IC50 of Cc1nc(C2CCCC2)nc(Oc2ccccc2)c1C(=O)N[C@@H](C)/C=C/S(C)(=O)=O ?
Reply text: 128

Inquiry: // IC50 lookup, key: CS(=O)(=O)/C=C/[C@@H](NC(=O)c1cnc(C2CCC2)nc1Oc1ccccc1)C1CC1
Reply text: 0.086

Inquiry: Could you share which IC50 value was measured for C[C@@H](/C=C/S(C)(=O)=O)NC(=O)c1cnc(C2CCCC2)nc1O[C@H]1CCCOC1 ?
Reply text: 53

Inquiry: Recorded IC50 for CS(=O)(=O)/C=C/CNC(=O)c1cnc(N2CCCC2)nc1Oc1ccccc1 , please?
Reply text: 15.6

Inquiry: If you can, please state the reported IC50 value of C[C@@H](/C=C/S(C)(=O)=O)NC(=O)c1cnc(C2CCCC2)nc1Oc1ccccn1 .
Reply text: 44.4

Inquiry: Dear colleague, I am looking for the recorded IC50 of the following compound: C[C@@H](/C=C/S(C)(=O)=O)NC(=O)c1cnc(C(C)(C)C)nc1OC1CCCCC1
Reply text: 0.33

Inquiry: Quick one: IC50 of CC(C)(C)c1ncc(C(=O)NC/C=C/S(C)(=O)=O)c(Oc2ccccc2)n1 ?
Reply text: 0.842

Inquiry: What value of IC50 has been recorded for this entry: C[C@@H](/C=C/S(C)(=O)=O)NC(=O)c1cnc(C2CC(F)(F)C2)nc1Oc1ccccc1
Reply text: 1.5

Inquiry: Item CC1CC[C@@H](C)N1c1ncc(C(=O)N[C@@H](C)/C=C/S(C)(=O)=O)c(Oc2ccccc2)n1 (stereo in doubt) has what recorded IC50?
Reply text: 13

Inquiry: Would you mind telling me what IC50 value was observed for CS(=O)(=O)/C=C/CNC(=O)c1cnc(C2CCCC2)nc1Oc1cccc(Cl)c1 ?
Reply text: 6.7

Inquiry: Can you share its IC50? I mean this compound: C[C@@H](/C=C/S(C)(=O)=O)NC(=O)c1ncc(C2=CCCC2)nc1Oc1ccccc1
Reply text: 52

Inquiry: I would be grateful if you could share the reported IC50 for C[C@@H](/C=C/S(C)(=O)=O)NC(=O)c1cnc(C2CCOC2)nc1Oc1ccccc1 (stereo partly shown) .
Reply text: 18

Inquiry: Find the recorded IC50 belonging to CCC(F)(F)c1ncc(C(=O)N[C@H](/C=C/S(C)(=O)=O)C2CC2)c(Oc2ccccc2)n1 and report it.
Reply text: 0.11

Inquiry: Form field: reported IC50 of CC(C)(C)c1ncc(C(=O)N[C@H](/C=C/S(C)(=O)=O)C2CCC(F)(F)CC2)c(Oc2ccccc2)n1
Reply text: 0.16

Inquiry: Please give the measured IC50 for this compound: CS(=O)(=O)/C=C/[C@@H](NC(=O)c1cnc(C2CC2)nc1Oc1ccccc1)C1CCOCC1
Reply text: 2.5

Inquiry: Reported IC50 for Cn1cnc2cc(C(=O)N[C@H](/C=C/S(C)(=O)=O)C3CC3)c(Oc3ccccc3)nc21 : what is it?
Reply text: 103

Inquiry: Need IC50 of C[C@@H](/C=C/S(C)(=O)=O)NC(=O)c1cnc(N2CCCC2)nc1Oc1ccccc1 , thanks.
Reply text: 4.4

Inquiry: Endpoint output: IC50 of CC(C)(C)c1ncc(C(=O)N[C@H](/C=C/S(C)(=O)=O)CC(F)F)c(Oc2ccccc2)n1 . Value?
Reply text: 0.15

Inquiry: // returns reported IC50 for input CS(=O)(=O)/C=C/[C@@H](NC(=O)c1cnc(OC2CC2)nc1Oc1ccccc1)C1CC1
Reply text: 1.1

Inquiry: Would you kindly share the measured IC50 for CC(F)(F)c1ncc(C(=O)N[C@H](/C=C/S(C)(=O)=O)COC2CC2)c(Oc2ccccc2)n1 ?
Reply text: 0.22

Inquiry: For CS(=O)(=O)/C=C/CNC(=O)c1cnc(C2CCCC2)nc1Oc1ccc(F)cc1 , what is its reported IC50?
Reply text: 4.6

Inquiry: Which IC50 value is on record for C[C@@H](/C=C/S(C)(=O)=O)NC(=O)c1cnc(C2CCCC2)nc1OC1CCCC1 ?
Reply text: 1.69

Inquiry: IC50 for CC[C@@H](/C=C/S(C)(=O)=O)NC(=O)c1cnc(C2CCCC2)nc1Oc1ccccc1 ?
Reply text: 0.439

Inquiry: Please look up its IC50: C[C@@H](/C=C/S(C)(=O)=O)NC(=O)c1cnc(C(C)(C)C)nc1OC1CC(F)(F)C1
Reply text: 15
